The reported measurements were obtained from patent US20030139578A1.

- assayedSystem: PDE8A(E) (Homo sapiens, UniProt O60658)
- Construct: A 1.6 kb region of PDE8A(E) (the C-terminal 545 amino acids) was amplified and cloned into the baculovirus transfer vector pFASTBAC; made in house; host or cells: Sf9 insect cells (baculovirus, pFASTBAC)
- Sequence (O60658 285-829 limits assumed): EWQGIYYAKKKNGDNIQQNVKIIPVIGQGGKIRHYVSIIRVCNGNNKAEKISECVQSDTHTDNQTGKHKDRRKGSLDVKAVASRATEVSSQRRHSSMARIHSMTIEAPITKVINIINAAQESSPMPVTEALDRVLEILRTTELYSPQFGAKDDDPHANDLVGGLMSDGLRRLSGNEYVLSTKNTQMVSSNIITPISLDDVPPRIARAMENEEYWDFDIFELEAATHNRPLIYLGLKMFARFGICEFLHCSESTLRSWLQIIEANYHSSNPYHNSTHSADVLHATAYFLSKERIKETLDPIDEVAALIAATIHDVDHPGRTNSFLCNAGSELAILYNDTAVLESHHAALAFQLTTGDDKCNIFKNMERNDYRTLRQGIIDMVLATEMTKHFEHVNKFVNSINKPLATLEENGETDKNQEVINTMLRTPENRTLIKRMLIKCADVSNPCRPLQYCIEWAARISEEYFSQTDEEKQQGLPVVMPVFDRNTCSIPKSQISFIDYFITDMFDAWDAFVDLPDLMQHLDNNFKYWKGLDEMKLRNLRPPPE
- protocolSummary: PDE activity assay, conversion of 3H-cAMP to 3H-adenosine by recombinant PDE8A(E)
- Type: biochemical
property: pIC50
One number for each entry, as −log10 of the molar value.

[ask] What does the record list as pIC50 for "OCCN(CCO)c1nc(N2CCCCC2)c2nc(N(CCO)CCO)nc(N3CCCCC3)c2n1" ?
[reply] 5.05
